molecular target: hERG (Homo sapiens); assay: in vitro; settings: pH 7.4
Sequence (Q12809 whole entry): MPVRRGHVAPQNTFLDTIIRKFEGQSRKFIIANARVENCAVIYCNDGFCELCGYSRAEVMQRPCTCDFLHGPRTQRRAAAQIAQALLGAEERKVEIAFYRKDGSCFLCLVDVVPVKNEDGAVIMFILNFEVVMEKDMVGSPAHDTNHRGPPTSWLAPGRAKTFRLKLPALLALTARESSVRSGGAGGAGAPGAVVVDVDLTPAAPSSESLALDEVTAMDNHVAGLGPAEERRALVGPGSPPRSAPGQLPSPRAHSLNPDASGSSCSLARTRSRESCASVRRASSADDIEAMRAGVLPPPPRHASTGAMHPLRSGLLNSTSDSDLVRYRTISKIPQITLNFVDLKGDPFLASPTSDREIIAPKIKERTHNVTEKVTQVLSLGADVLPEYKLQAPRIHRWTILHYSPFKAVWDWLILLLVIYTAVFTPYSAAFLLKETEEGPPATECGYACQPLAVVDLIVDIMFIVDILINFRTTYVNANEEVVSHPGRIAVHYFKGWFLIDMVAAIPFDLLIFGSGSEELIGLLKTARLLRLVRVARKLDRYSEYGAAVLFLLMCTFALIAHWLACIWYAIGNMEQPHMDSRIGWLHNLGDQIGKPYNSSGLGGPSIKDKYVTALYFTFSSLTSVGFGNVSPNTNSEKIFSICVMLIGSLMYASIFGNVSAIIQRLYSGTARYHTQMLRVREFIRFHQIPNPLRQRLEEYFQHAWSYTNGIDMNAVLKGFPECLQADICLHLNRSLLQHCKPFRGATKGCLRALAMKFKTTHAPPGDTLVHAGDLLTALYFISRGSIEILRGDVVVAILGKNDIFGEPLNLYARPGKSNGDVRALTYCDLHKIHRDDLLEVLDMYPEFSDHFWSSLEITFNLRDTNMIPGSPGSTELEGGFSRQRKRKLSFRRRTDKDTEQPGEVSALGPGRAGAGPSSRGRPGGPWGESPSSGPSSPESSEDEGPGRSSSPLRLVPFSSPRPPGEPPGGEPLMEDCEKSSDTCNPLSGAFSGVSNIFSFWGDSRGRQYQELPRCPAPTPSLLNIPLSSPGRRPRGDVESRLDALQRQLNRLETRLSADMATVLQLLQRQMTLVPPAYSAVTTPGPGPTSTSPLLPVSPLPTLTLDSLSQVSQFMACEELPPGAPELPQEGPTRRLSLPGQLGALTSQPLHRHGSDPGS
readout-kind: inhibition at 0.01 µM (%)

[[record]]
molecule = "CC(C)(CN1CCC(=C2c3ccc(F)cc3COc3ccccc32)CC1)C(=O)O [Compound 49a]"
assay_value = 10


---

target: Dopamine, D1 (human recombinant); assay: Dopamine D2 binding assay (printed as D1 in b555)
readout-kind: Ki

[[record]]
compound = "COc1ccc2c(c1)COc1ccc(F)cc1C2=C1CCN(CCCC(=O)O)CC1 [Compound 10520]"
readout_kind = "Ki"
assay_value = "> 10 µM"

[[record]]
compound = "COc1ccc2c(c1)COc1ccc(F)cc1C2=C1CCN(CCC(=O)O)CC1 [Compound 10518]"
readout_kind = "Ki"
assay_value = "> 10 µM"

